Test system: PC-3
experimental.details: Cytotoxicity against human PC3 cells assessed as reduction in cell viability by MTT assay
Format: functional, cell-based
attribute.measured: pIC50
Worth noting: pIC50 values are minus log10 of concentrations stated in mol/L.

// map CN1C/C(=C\c2ccc(N(C)C)cc2[N+](=O)[O-])C(=NO)/C(=C/c2ccc(N(C)C)cc2[N+](=O)[O-])C1 to recorded pIC50 (system: PC-3) 7.70

----------
experimental.details: Cytotoxicity against human […] cells assessed as reduction in cell viability
Assay type: functional, cell-based
attribute.measured: pIC50
Worth noting: pIC50 values are minus log10 of concentrations stated in mol/L.

State the recorded pIC50 for this entry: COc1cc(/C=C/C(=O)/C=C/c2ccc3c(c2)C(=O)N(C2CCC(=O)NC2=O)C3=O)ccc1O (configuration not stated) 5.25

Consider next the molecule COc1cc(/C=C/C(=O)C(=Cc2ccc3c(c2)C(=O)N(C2CCC(=O)NC2=O)C3=O)C(=O)/C=C/c2ccc(O)c(OC)c2)ccc1O (configuration not stated) in the same way. 5.34

----------
System: MM1.S
experimental.details: Cytotoxicity against human MM1S cells assessed as reduction in cell viability
Assay type: functional, cell-based
Below: a set of entries, each annotated with reported IC50.
Give your result as the value with the unit written after it.

molecule	target.or.system	result
COc1cc(/C=C/C(=O)C(=Cc2ccc3c(c2)C(=O)N(C2CCC(=O)NC2=O)C3=O)C(=O)/C=C/c2ccc(O)c(OC)c2)ccc1O (configuration not stated)	MM1.S	6.44 µM

Attention now turns to another entry.
State the recorded IC50 for this entry: COc1cc(/C=C/C(=O)/C=C/c2ccc3c(c2)C(=O)N(C2CCC(=O)NC2=O)C3=O)ccc1O (configuration not stated) 7.59 µM

----------
Test system: MDA-MB-231
experimental.details: Antiproliferative activity against human MDA-MB-231 cells 24 to 48 hrs by MTT assay
Format: functional, cell-based
condition.context: Homo sapiens, MDA-MB-231
attribute.measured: pIC50
Worth noting: pIC50 values are minus log10 of concentrations stated in mol/L.

State the recorded pIC50 for this entry: O=C1/C(=C/c2cn(-c3ccccc3)nc2-c2ccccc2)CCCC/C1=C\c1cn(-c2ccccc2)nc1-c1ccccc1 4.94
